Cited source: patent US5164405A

experiment: physchem
Assay type: physicochemical
experimentalConditions: water, pH 3.05, water, Equilibrium solubility
outcomeMeasure: solubility thermodynamic (µg/mL)
Give just the number in µg/mL; leave the unit off.

Req: Tell me measured solubility thermodynamic for COC(=O)C1=C(C)NC(C)=C(C(=O)OCCN(C)Cc2ccccc2)C1c1cccc([N+](=O)[O-])c1.Cl (stereo not shown) [Nicardipine Hydrochloride] please.
Resp: 2940

---

experiment: physchem
Type: physicochemical
experimentalConditions: water, pH 3.45, water, Equilibrium solubility
From the text: The solubilities were equilibrium solubilities measured by a saturated solution method well known to those skilled in the art.
outcomeMeasure: solubility thermodynamic
Don't forget the unit after the value.

Req: Report solubility thermodynamic for COC(=O)C1=C(C)NC(C)=C(C(=O)OCCN(C)Cc2ccccc2)C1c1cccc([N+](=O)[O-])c1.Cl (stereo not shown) [Nicardipine Hydrochloride]
Resp: 3280 µg/mL

---

experiment: physchem
Type: physicochemical
experimentalConditions: water, pH 4.24, water, Equilibrium solubility
outcomeMeasure: solubility thermodynamic (µg/mL)
# number only, unit µg/mL dropped from output

Req: Quote solubility thermodynamic reported for COC(=O)C1=C(C)NC(C)=C(C(=O)OCCN(C)Cc2ccccc2)C1c1cccc([N+](=O)[O-])c1.Cl (stereo not shown) [Nicardipine Hydrochloride] please.
Resp: 2350

---

experiment: physchem
Format: physicochemical
experimentalConditions: water, pH 5.05, water, Equilibrium solubility
outcomeMeasure: solubility thermodynamic (mg/mL)
// return numeric value only (unit: mg/mL, not printed)

Req: Assign solubility thermodynamic to the following record: COC(=O)C1=C(C)NC(C)=C(C(=O)OCCN(C)Cc2ccccc2)C1c1cccc([N+](=O)[O-])c1.Cl (stereo not shown) [Nicardipine Hydrochloride]
Resp: 0.36
